# study system: T1, CRBN, Q96SW2;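 further: pooled lentiviral library of zinc finger degron-EGFP fusions in mCherry-positive Jurkat cells, FACS-sorted after compound exposure, with degron abundance counted by next-generation sequencing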
# T1 chain: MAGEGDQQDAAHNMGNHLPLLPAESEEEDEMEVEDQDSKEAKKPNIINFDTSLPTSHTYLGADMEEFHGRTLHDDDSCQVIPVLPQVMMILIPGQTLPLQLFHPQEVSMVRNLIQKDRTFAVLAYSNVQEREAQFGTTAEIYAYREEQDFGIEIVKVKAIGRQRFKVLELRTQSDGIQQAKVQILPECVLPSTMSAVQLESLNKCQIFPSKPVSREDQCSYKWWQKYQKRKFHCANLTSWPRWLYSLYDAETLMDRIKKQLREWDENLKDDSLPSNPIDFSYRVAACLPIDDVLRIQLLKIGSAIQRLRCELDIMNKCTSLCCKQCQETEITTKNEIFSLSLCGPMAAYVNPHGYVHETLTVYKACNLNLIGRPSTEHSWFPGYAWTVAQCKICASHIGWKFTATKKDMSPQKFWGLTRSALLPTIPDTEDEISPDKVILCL
# measurement notes: log2 fold change of degron read counts, EGFP-low vs EGFP+ sorted cells (limma voom), compound-induced degradation; higher = more compound-induced degradation of the degron-EGFP fusion; degrons are variants of IKZF1/3 zinc finger 2; compound dose not given here
# experimental setup: Jurkat; 18 h; compound: compound 19 (5-tert-butyl-thalidomide)
In all, about 8,300 sequences were measured (“log2 fold change of degron read counts, EGFP-low vs EGFP+ sorted cells (limma voom), compound-induced degradation”: median about -1.1, highest 2% from about 3.2 on). Only a selection was taken, and the highest values are over-represented in it overall.
assay readout: log2 fold change of degron read counts

{"columns": ["seq", "reading"],
 "data": [
  ["FDCNQCGAFFTQKGNLLRHIKL [46F_47D_49N_50Q_52G_53A_54F_55F_67L_, Q9UKT9]", -1.58],
  ["LCCEICGFRCTQKGNLLRHIKL [46L_47C_49E_50I_52G_53F_54R_55C_67L_, Q9UKT9]", 2.36],
  ["FQCPICGHKFTQKGNLLRHIKL [46F_47Q_49P_50I_52G_53H_54K_55F_67L_, Q9UKT9]", -1.95],
  ["FLCPVCGAEFTQKGNLLRHIKL [46F_47L_49P_50V_52G_53A_54E_55F_67L_, Q9UKT9]", -0.14]
]}

Where do the numbers come from? From the supplement of paper PMC12645437.
